Reference for the values: paper PMC3335879

target: P. falciparum NMT (Plasmodium falciparum); construct: made in house; experiment: biochemical; conditions: Table 1; mean of 3 separate experiments; top concentration 80 µM; read-out: Pfal IC50
Sequence (Q8ILW6 whole entry): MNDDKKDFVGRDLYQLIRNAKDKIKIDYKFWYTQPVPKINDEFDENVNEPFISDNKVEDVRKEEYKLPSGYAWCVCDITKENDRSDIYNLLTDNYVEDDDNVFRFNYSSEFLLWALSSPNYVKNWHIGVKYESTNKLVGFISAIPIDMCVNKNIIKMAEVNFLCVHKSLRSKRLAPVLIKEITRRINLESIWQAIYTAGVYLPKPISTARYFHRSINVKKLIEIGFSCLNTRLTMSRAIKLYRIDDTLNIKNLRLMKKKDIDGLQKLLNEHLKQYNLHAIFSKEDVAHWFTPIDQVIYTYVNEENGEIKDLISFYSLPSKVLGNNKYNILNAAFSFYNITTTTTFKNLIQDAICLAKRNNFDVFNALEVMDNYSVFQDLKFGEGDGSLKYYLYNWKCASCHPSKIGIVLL
result-type: IC50

Query string: Look up and report IC50, with P. falciparum NMT (Plasmodium falciparum) as system, for CNCC(=O)N1CC[C@@H](NC(=O)c2ccccc2C(F)(F)F)C1 [CP-854190]
Result string: 1720 nM

Query string: Look up and report IC50, with P. falciparum NMT (Plasmodium falciparum) as system, for NC(CC(=O)N1CC(CO)C(c2ccc(Cl)cc2)C1)Cc1ccc(Cl)cc1 (centres unmarked) [PF-03402623]
Result string: 71900 nM

Query string: Look up and report IC50, with P. falciparum NMT (Plasmodium falciparum) as system, for Cc1cnc(CNC(=O)C2CN(c3nc(NCCN(C)C)ncc3Cl)C2)cn1 [PF-03531814]
Result string: 482 nM

Query string: Look up and report IC50, with P. falciparum NMT (Plasmodium falciparum) as system, for c1cncc(CCNCc2cccc(-c3cccc(CN4CCc5ncsc5C4)c3)c2)c1 [PF-00075634]
Result string: > 80000 nM

Query string: Look up and report IC50, with P. falciparum NMT (Plasmodium falciparum) as system, for Cn1c(CN2CCC(c3cc(F)cc(F)c3)CC2)nc2cc(Cl)ccc21 [PF-03665853]
Result string: 910 nM
